B1: glmS ribozyme (parent)
chain: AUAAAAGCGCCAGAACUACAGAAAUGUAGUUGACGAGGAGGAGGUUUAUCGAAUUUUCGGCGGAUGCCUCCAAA

Variants of: B1
measurement description: self-cleavage kobs at 2500 uM GlcN6P; higher = faster cleavage; RNA array
run conditions: with glucosamine-6-phosphate
This sample holds only a part of the variants without activity.
Task for the reader: assign each of the following variants its reported self-cleavage kobs at 2500 uM GlcN6P.
Give bare numbers, in s⁻¹.

Report self-cleavage kobs at 2500 uM GlcN6P for each item below.
1. AUAAAAGCGCCAGAAUUACAGAAAUGUAGUUGACGAGGUGGAGGUUUAUCGAAUUUUCGGCGGAUGCCUCCAAA [C16U A39U]
2. AUAAAAGCGCCAGCACUACAGAAAUGUAGUUGACGAGGAGGAUGUUUAUCGAAUUAUCGGCGGAUGCUUCCAAA [A14C G43U U56A C68U]
3. AUAAAAGCGCCAGUACUACAGAAAUGUAGUUGACGAGGAGGAGGUUUAUCGAAUUUCCGGCGGAUGCCUCCAAA [A14U U57C]

A)
1. 0.0111
2. 0.000133
3. 5.75e-05
